# System: MOLT-4
# method-description: NCI 60 cell one-dose screening (SRB)
# Format: cell-based
# reported-conditions: Homo sapiens; MOLT-4, Leukemia; single dose 10 µM, 48 h; read-out: Percentage of cellular growth inhibition
# key: entry, value: inhibition at 10 µM
The answer is to be given in %; state only the numeric part.

Lookup: Look up inhibition at 10 µM for this compound: Clc1ccc(-c2csc(Nc3cccc(Nc4nc(-c5ccc(Cl)cc5)cs4)c3)n2)cc1 [6c]
Found: 25.4

Lookup: Look up inhibition at 10 µM for this compound: S=C(Nc1ccccc1)Nc1cccc(NC(=S)Nc2ccccc2)c1 [compound 7]
Found: -5.8

Lookup: Look up inhibition at 10 µM for this compound: Fc1ccc(-c2cs/c(=N\c3ccccc3)n2-c2cccc(-n3c(-c4ccc(F)cc4)cs/c3=N\c3ccccc3)c2)cc1 [8b]
Found: 50.1

---

# System: UACC-257
# method-description: NCI 60 cell one-dose screening (SRB)
# Type: cell-based
# reported-conditions: Homo sapiens; UACC-257, Melanoma; single dose 10 µM, 48 h; read-out: Percentage of cellular growth inhibition
observation-type: inhibition at 10 µM (%)
The answer is to be given in %; state only the numeric part.

Take a look at these entries with their results.
compound: Clc1ccc(-c2cs/c(=N\c3ccccc3)n2-c2cccc(-n3c(-c4ccc(Cl)cc4)cs/c3=N\c3ccccc3)c2)cc1 [8c]
experimental-system: UACC-257
unit-label: %
inhibition at 10 µM: -8.4
--
compound: c1ccc(-c2csc(Nc3cccc(Nc4nc(-c5ccccc5)cs4)c3)n2)cc1 [6a]
experimental-system: UACC-257
unit-label: %
inhibition at 10 µM: 53.9
--
compound: S=C(Nc1ccccc1)Nc1cccc(NC(=S)Nc2ccccc2)c1 [compound 7]
experimental-system: UACC-257
unit-label: %
inhibition at 10 µM: -1.7
--
compound: Fc1ccc(-c2csc(Nc3cccc(Nc4nc(-c5ccc(F)cc5)cs4)c3)n2)cc1 [6b]
experimental-system: UACC-257
unit-label: %
inhibition at 10 µM: 25.4
--
compound: NC(=S)Nc1cccc(NC(N)=S)c1 [compound 2, 1,1′-(1,3-phenylene)bis(thiourea)]
experimental-system: UACC-257
unit-label: %
inhibition at 10 µM: 1.9
--
compound: CCOC(=O)c1sc(Nc2cccc(Nc3nc(C)c(C(=O)OCC)s3)c2)nc1C [3c]
experimental-system: UACC-257
unit-label: %
inhibition at 10 µM: 10.3
--
compound: Fc1ccc(-c2cs/c(=N\c3ccccc3)n2-c2cccc(-n3c(-c4ccc(F)cc4)cs/c3=N\c3ccccc3)c2)cc1 [8b]
experimental-system: UACC-257
unit-label: %
inhibition at 10 µM: -7

Lookup: Look up inhibition at 10 µM for this compound: Cc1nc(Nc2cccc(Nc3nc(C)c(N=Nc4ccccc4)s3)c2)sc1N=Nc1ccccc1 [5a]
Found: 2.7

---

# Tested on: K-562
# method-description: NCI 60 cell one-dose screening (SRB)
# Format: cell-based
# reported-conditions: Homo sapiens, K562; K-562, Leukemia; single dose 10 µM, 48 h; read-out: Percentage of cellular growth inhibition
Label label 1 for high-side inhibition at 10 µM (at or above 30%) and label 0 for low-side inhibition at 10 µM (below it).

These solved cases illustrate the format of a correct answer.
compound: CCOC(=O)c1sc(Nc2cccc(Nc3nc(C)c(C(=O)OCC)s3)c2)nc1C [3c]
category: label 1
--
compound: Clc1ccc(-c2cs/c(=N\c3ccccc3)n2-c2cccc(-n3c(-c4ccc(Cl)cc4)cs/c3=N\c3ccccc3)c2)cc1 [8c]
category: label 0
--
compound: c1ccc(-c2csc(Nc3cccc(Nc4nc(-c5ccccc5)cs4)c3)n2)cc1 [6a]
category: label 1

Lookup: Please check the record Clc1ccc(-c2csc(Nc3cccc(Nc4nc(-c5ccc(Cl)cc5)cs4)c3)n2)cc1 [6c] and state if its inhibition at 10 µM is at or above 30%.
Found: label 0

Lookup: Please check the record NC(=S)Nc1cccc(NC(N)=S)c1 [compound 2, 1,1′-(1,3-phenylene)bis(thiourea)] and state if its inhibition at 10 µM is at or above 30%.
Found: label 1

Lookup: Please check the record Cc1csc(Nc2cccc(Nc3nc(C)cs3)c2)n1 [3a] and state if its inhibition at 10 µM is at or above 30%.
Found: label 0

Lookup: Please check the record c1ccc(/N=c2\scc(-c3ccccc3)n2-c2cccc(-n3c(-c4ccccc4)cs/c3=N\c3ccccc3)c2)cc1 [8a] and state if its inhibition at 10 µM is at or above 30%.
Found: label 0

Lookup: Please check the record Fc1ccc(-c2cs/c(=N\c3ccccc3)n2-c2cccc(-n3c(-c4ccc(F)cc4)cs/c3=N\c3ccccc3)c2)cc1 [8b] and state if its inhibition at 10 µM is at or above 30%.
Found: label 0

Lookup: Please check the record CC(=O)c1sc(Nc2cccc(Nc3nc(C)c(C(C)=O)s3)c2)nc1C [3b] and state if its inhibition at 10 µM is at or above 30%.
Found: label 1

Lookup: Please check the record Cc1nc(Nc2cccc(Nc3nc(C)c(N=Nc4ccccc4)s3)c2)sc1N=Nc1ccccc1 [5a] and state if its inhibition at 10 µM is at or above 30%.
Found: label 1

Lookup: Please check the record Fc1ccc(-c2csc(Nc3cccc(Nc4nc(-c5ccc(F)cc5)cs4)c3)n2)cc1 [6b] and state if its inhibition at 10 µM is at or above 30%.
Found: label 1

Lookup: Please check the record S=C(Nc1ccccc1)Nc1cccc(NC(=S)Nc2ccccc2)c1 [compound 7] and state if its inhibition at 10 µM is at or above 30%.
Found: label 0
